Consider the following compounds; for each one, report its Predicted Cl, CLH.
- Measurement Protocol: Prediction of in vivo human PK parameters from hepatocyte clearance
- Assay type: in vitro ADME
- Details: predicted from hepatocyte Clint, fu = 1
One number for each entry.

Examples with answers:
CC(C)(C)NC(=O)NC1CCN(C(=O)[C@H](Cc2cccc(C(=N)N)c2)NS(=O)(=O)c2cccc(-c3ccc(CO)c(F)c3)c2)CC1 7.29
CC(C)(C)NC(=O)NC1CCN(C(=O)[C@H](Cc2cccc(C(=N)N)c2)NS(=O)(=O)c2cccc(-c3ccc(CO)cc3)c2)CC1 10.56
N=C(N)c1cccc(C[C@H](NS(=O)(=O)c2cccc(NC(=O)CCN)c2)C(=O)N2CCC(CCN)CC2)c1 10.92

Continue with the next compound.
Prompt: // Input: `COc1ccc(-c2cccc(S(=O)(=O)N[C@@H](Cc3cccc(C(=N)N)c3)C(=O)N3CCC(NC(=O)NC4CCCCC4)CC3)c2)c(OC)c1` . Output its Predicted Cl, CLH only.
Completion: 7.60

* * *

- Measurement Protocol: Prediction of in vivo human PK parameters from hepatocyte clearance
- Assay type: in vitro ADME
- Details: predicted from hepatocyte Clint, fu = 1
Consider the following molecules; for each one, report its Predicted Cl, CLH.

COc1ccc(-c2cccc(S(=O)(=O)N[C@@H](Cc3cccc(C(=N)N)c3)C(=O)N3CCC(NC(=O)NC(C)(C)C)CC3)c2)c(OC)c1 8.17

Look up Predicted Cl, CLH for the entries below, preserving their order.
1. COc1ccc(-c2cccc(S(=O)(=O)N[C@@H](Cc3cccc(C(=N)N)c3)C(=O)N3CCN(C(=O)NC4CCCCC4)CC3)c2)c(OC)c1
2. COc1ccc(-c2cccc(S(=O)(=O)N[C@@H](Cc3cccc(C(=N)N)c3)C(=O)N3CCC(N)CC3)c2)c(OC)c1

Completion:
[9.23, 7.40]

* * *

- Measurement Protocol: Prediction of in vivo human PK parameters from hepatocyte clearance
- Type: in vitro ADME
- Details: predicted
Measure: Extraction ratio EH
Numbers only.

Molecule	Extraction ratio EH
COc1ccc(-c2cccc(S(=O)(=O)N[C@@H](Cc3cccc(C(=N)N)c3)C(=O)N3CCN(C(=O)NC4CCCCC4)CC3)c2)c(OC)c1 [MI-1900]	0.45
COc1ccc(-c2cccc(S(=O)(=O)N[C@@H](Cc3cccc(C(=N)N)c3)C(=O)N3CCC(N)CC3)c2)c(OC)c1 [MI-472]	0.36
COc1ccc(-c2cccc(S(=O)(=O)N[C@@H](Cc3cccc(C(=N)N)c3)C(=O)N3CCC(NC(=O)NC4CCCCC4)CC3)c2)c(OC)c1 [MI-463]	0.37

Prompt: // Input: CC(C)(C)NC(=O)NC1CCN(C(=O)[C@H](Cc2cccc(C(=N)N)c2)NS(=O)(=O)c2cccc(-c3ccc(CO)c(F)c3)c2)CC1 [MI-1904] . Output its Extraction ratio EH only.
Completion: 0.35

* * *

Consider the following molecules; for each one, report its half-life at 10 µM.
- Measurement Protocol: Depletion of inhibitors in human primary hepatocyte suspension (LC-MS/MS)
- Details: human, cryopreserved primary human hepatocytes in suspension
Give bare numbers, in h.

Examples with answers:
CC(C)(C)NC(=O)NC1CCN(C(=O)[C@H](Cc2cccc(C(=N)N)c2)NS(=O)(=O)c2cccc(-c3ccc(CO)c(F)c3)c2)CC1 3.99
COc1ccc(-c2cccc(S(=O)(=O)N[C@@H](Cc3cccc(C(=N)N)c3)C(=O)N3CCN(C(=O)NC4CCCCC4)CC3)c2)c(OC)c1 1.8
CC(C)(C)NC(=O)NC1CCN(C(=O)[C@H](Cc2cccc(C(=N)N)c2)NS(=O)(=O)c2cccc(-c3ccc(CO)cc3)c2)CC1 0.753
COc1ccc(-c2cccc(S(=O)(=O)N[C@@H](Cc3cccc(C(=N)N)c3)C(=O)N3CCC(NC(=O)NC(C)(C)C)CC3)c2)c(OC)c1 2.86
COc1ccc(-c2cccc(S(=O)(=O)N[C@@H](Cc3cccc(C(=N)N)c3)C(=O)N3CCC(N)CC3)c2)c(OC)c1 3.84
COc1ccc(-c2cccc(S(=O)(=O)N[C@@H](Cc3cccc(C(=N)N)c3)C(=O)N3CCC(NC(=O)NC4CCCCC4)CC3)c2)c(OC)c1 3.57

Prompt: // Input: `N=C(N)c1cccc(C[C@H](NS(=O)(=O)c2cccc(NC(=O)CCN)c2)C(=O)N2CCC(CCN)CC2)c1` . Output its half-life at 10 µM only.
Completion: 0.52

The reported measurements were obtained from paper PMC11258351.
